System: Escherichia coli
assay.text: Inhibition of Escherichia coli MetAP at 10 uM after 15 mins by fluorescence analysis
The source made the active and inactive calls. The rule behind the calls is not given here.

{"compound": "O=C1NC(=O)/C(=C/c2ccc(O)cc2)S1", "inhibition": "inactive"}
{"compound": "O=C1NC(=O)/C(=C/c2c[nH]c3ccccc23)S1", "inhibition": "10%"}
{"compound": "O=C1NC(=O)[C@@H](Cc2ccccc2)N1", "inhibition": "inactive"}
{"compound": "COc1ccc(/C=C2\\SC(=O)NC2=O)cc1", "inhibition": "11%"}
{"compound": "O=C1NC(=S)N/C1=C\\c1sccc1Br", "inhibition": "inactive"}
{"compound": "O=C1NC(=O)/C(=C/c2cccs2)S1", "inhibition": "11%"}
{"compound": "O=C1NC(=O)/C(=C/c2ccc(O)cc2)N1", "inhibition": "inactive"}
{"compound": "COc1ccccc1/C=C1\\SC(=S)NC1=O", "inhibition": "inactive"}
{"compound": "COc1ccc(/C=C2\\NC(=O)NC2=O)cc1", "inhibition": "10%"}
{"compound": "COc1ccc(/C=C/C=C2\\SC(=O)NC2=O)cc1", "inhibition": "inactive"}
{"compound": "O=C1NC(=O)/C(=C/c2ccc([N+](=O)[O-])cc2)S1", "inhibition": "13%"}
{"compound": "O=C1NC(=S)S/C1=C\\C=C\\c1ccco1", "inhibition": "14%"}
{"compound": "O=C1NC(=O)/C(=C/c2ccc3ccccc3c2)N1", "inhibition": "46%"}
{"compound": "CC(C)C[C@@H]1NC(=S)NC1=O", "inhibition": "inactive"}
{"compound": "O=C1NC(=O)/C(=C/c2c(F)c(F)c(F)c(F)c2F)N1", "inhibition": "inactive"}
{"compound": "COc1cc(/C=C2\\NC(=O)NC2=O)ccc1O", "inhibition": "inactive"}
{"compound": "CCC/C=C/C1NC(=S)NC1=O (configuration not stated)", "inhibition": "19%"}
{"compound": "COc1ccc(/C=C2\\NC(=S)NC2=O)cc1OC", "inhibition": "11%"}
{"compound": "O=C1NC(=S)S/C1=C\\c1cc(Br)cs1", "inhibition": "inactive"}
{"compound": "O=C1NC(=S)S/C1=C1/CCOc2ccccc21", "inhibition": "inactive"}
{"compound": "CCC/C=C/C1SC(=S)NC1=O (configuration not stated)", "inhibition": "inactive"}
{"compound": "COc1ccc(/C=C/C=C2\\NC(=S)NC2=O)cc1", "inhibition": "27%"}
{"compound": "O=C1NC(=S)NC1=C(c1ccccc1)c1ccccc1", "inhibition": "24%"}
{"compound": "O=C1NC(=O)/C(=C/c2ccc(O)c(O)c2)S1", "inhibition": "90%"}
{"compound": "COc1ccc(/C=C2\\NC(=S)NC2=O)cc1", "inhibition": "inactive"}
{"compound": "C/C(=C1/SC(=S)NC1=O)c1ccc(F)cc1", "inhibition": "inactive"}
{"compound": "Cn1cc(/C=C2\\SC(=S)NC2=O)c2ccccc21", "inhibition": "12%"}
{"compound": "O=C1NC(=S)S/C1=C\\c1c(F)c(F)c(F)c(F)c1F", "inhibition": "inactive"}
{"compound": "COc1ccc(/C=C2\\NC(=O)NC2=O)cc1OC", "inhibition": "inactive"}
{"compound": "COc1cccc(/C=C2\\SC(=S)NC2=O)c1", "inhibition": "inactive"}
{"compound": "O=C1NC(=S)S/C1=C\\c1ccc(Cl)cc1Cl", "inhibition": "inactive"}
{"compound": "C/C(=C1/SC(=O)NC1=O)c1ccc2ccccc2c1", "inhibition": "12%"}
{"compound": "C/C(=C1/NC(=S)NC1=O)c1ccccc1", "inhibition": "14%"}
{"compound": "CCCC/C=C/C1SC(=S)NC1=O (configuration not stated)", "inhibition": "17%"}
{"compound": "O=C1NC(=S)N/C1=C\\c1cccc(O)c1", "inhibition": "15%"}
{"compound": "O=C1NC(=O)/C(=C/c2ccc(Cl)cc2Cl)N1", "inhibition": "inactive"}
{"compound": "Cn1cc(/C=C2\\NC(=S)NC2=O)c2ccccc21", "inhibition": "inactive"}
